Data provenance: patent US20180057604A1

Molecular target: T1, cyno TfR extracellular domain (analogous construct to human TfR ecd) (cynomolgus monkey, UniProt Q5RDH6 87-760 (Pongo abelii entry))
T1 construct: also called cynoTfR ecd
T1 chain: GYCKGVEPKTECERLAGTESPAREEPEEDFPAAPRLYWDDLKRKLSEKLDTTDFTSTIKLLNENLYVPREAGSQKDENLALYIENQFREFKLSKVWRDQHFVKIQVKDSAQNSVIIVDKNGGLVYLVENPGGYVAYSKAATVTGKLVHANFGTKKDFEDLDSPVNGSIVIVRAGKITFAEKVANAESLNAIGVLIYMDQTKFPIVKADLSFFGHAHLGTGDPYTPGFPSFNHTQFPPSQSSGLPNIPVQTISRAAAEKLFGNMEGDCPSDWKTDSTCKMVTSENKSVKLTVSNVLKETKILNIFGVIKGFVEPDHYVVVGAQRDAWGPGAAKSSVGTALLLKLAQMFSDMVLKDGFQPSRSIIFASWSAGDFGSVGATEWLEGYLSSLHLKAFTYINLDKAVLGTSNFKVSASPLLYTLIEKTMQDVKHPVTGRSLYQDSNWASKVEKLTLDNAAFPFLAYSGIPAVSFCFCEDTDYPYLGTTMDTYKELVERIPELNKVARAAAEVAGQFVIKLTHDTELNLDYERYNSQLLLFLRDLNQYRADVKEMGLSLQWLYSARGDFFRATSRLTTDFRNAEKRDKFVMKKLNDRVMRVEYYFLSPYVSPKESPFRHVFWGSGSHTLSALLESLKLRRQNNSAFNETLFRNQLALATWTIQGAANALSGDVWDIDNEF
Experiment: ELISA, TfR-coated plate, IgG in culture supernatant;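 further: human or cynomolgus TfR coated at 2 µg/mL, supernatant IgG titrated in 1:5 steps for 1 h, bound antibody read with HRP anti-human Fcγ and TMB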
Known EC50 of a selection of binders
Entry rule: numbers only, all in ng/mL.

{"binder": "hu15G11.v5 IgG Ala variant T30A (HVR-H1) (antibody, name in Kabat numbering, V domains shown, IgG in cell culture supernatant) VH: EVQLVQSGAEVKKPGASVKVSCKASGYTFASYWMHWVRQAPGQRLEWIGEINPTNGRTNYIEKFKSRATLTVDKSASTAYMELSSLRSEDTAVYYCARGTRAYHYWGQGTMVTVSS VL: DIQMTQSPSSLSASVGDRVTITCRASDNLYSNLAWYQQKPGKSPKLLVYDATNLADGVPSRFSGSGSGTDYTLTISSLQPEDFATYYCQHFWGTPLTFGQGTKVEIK", "EC50 (ng/mL)": 0.9}

# ---- query binder ----
EC50 for hu15G11.v5 IgG Ala variant D27A (HVR-L1) (antibody, V domains shown, IgG in cell culture supernatant) VH: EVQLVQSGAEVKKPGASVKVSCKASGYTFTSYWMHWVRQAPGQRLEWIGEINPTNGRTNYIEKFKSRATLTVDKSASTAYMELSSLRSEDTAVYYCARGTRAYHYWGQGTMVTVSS VL: DIQMTQSPSSLSASVGDRVTITCRASANLYSNLAWYQQKPGKSPKLLVYDATNLADGVPSRFSGSGSGTDYTLTISSLQPEDFATYYCQHFWGTPLTFGQGTKVEIK is 0.8
